Hello, the source for this data is the Immune Epitope Database (IEDB), in case you need it.

Target: HLA-A*02:01
Assay: IEDB peptide-MHC binding, purified MHC/direct/fluorescence; filed as Kd, often an IC50 or EC50 that approximates it; bounds were set here for any values at or beyond the usual limits of such assays
Settings: source organism: Listeria monocytogenes
Observed property: pKd
Remember, pKd is on a log scale: it is -log10 of the molar concentration.

Task: Return pKd measured with HLA-A*02:01 given this sequence: "SQDEVLFLV"
Result: 8.35

###

Please respond with reported Kd for every item in the list.
Target: HLA-A*11:01
Assay: IEDB peptide-MHC binding, purified MHC/competitive/radioactivity; filed as Kd, often an IC50 or EC50 that approximates it; bounds were set here for any values at or beyond the usual limits of such assays
Settings: source organism: Dengue virus 3 Martinique/1243/1999
Expressed in nM, but write only the number.

Task: Query: Kd; subject: "ATQLATLRK"
Result: 67.8

Task: Query: Kd; subject: "LTYQNKVVK"
Result: 70.5

###

Molecular target: HLA-A*31:01
Assay: IEDB peptide-MHC binding, purified MHC/competitive/fluorescence; filed as Kd, often an IC50 or EC50 that approximates it; bounds were set here for any values at or beyond the usual limits of such assays
Conditions: source organism: Mammarenavirus juninense
Observed property: pKd
Remember, pKd is on a log scale: it is -log10 of the molar concentration.

Task: Query: pKd; subject: "KLFDLHGRR"
Result: 7.95

###

Target: HLA-B*15:01
Test: IEDB peptide-MHC binding, purified MHC/competitive/fluorescence; filed as Kd, often an IC50 or EC50 that approximates it; bounds were set here for any values at or beyond the usual limits of such assays
Details: source organism: Escherichia coli
pKd: −log10 of the molar value.
Observed property: pKd

Task: Query: pKd; subject: "MERFSWHVA"
Result: ≤ 4.70

###

Target: HLA-A*02:19
Test: IEDB peptide-MHC binding, purified MHC/direct/fluorescence; filed as Kd, often an IC50 or EC50 that approximates it; bounds were set here for any values at or beyond the usual limits of such assays
Conditions: source organism: Salmonella enterica subsp. enterica serovar Typhimurium str. LT2
pKd: −log10 of the molar value.
Observed property: pKd

Task: Query: pKd; subject: "FPASHMATY"
Result: ≤ 4.70

###

Target: HLA-B*15:17
Assay: IEDB peptide-MHC binding, purified MHC/competitive/fluorescence; filed as Kd, often an IC50 or EC50 that approximates it; bounds were set here for any values at or beyond the usual limits of such assays
Settings: source organism: Campylobacter jejuni subsp. jejuni NCTC 11168 = ATCC 700819
Observed property: Kd

Task: Query: Kd; subject: "FTFERSKIK"
Result: ≥ 20 µM

###

Target: HLA-B*15:01
Assay: IEDB peptide-MHC binding, purified MHC/competitive/fluorescence; filed as Kd, often an IC50 or EC50 that approximates it; bounds were set here for any values at or beyond the usual limits of such assays
Details: source organism: Yersinia pestis Nepal516
Observed property: pKd
Remember, pKd is on a log scale: it is -log10 of the molar concentration.

Task: Query: pKd; subject: "YIYTRSFQM"
Result: 6.45

###

Biological target: HLA-B*39:01
Test: IEDB peptide-MHC binding, purified MHC/direct/fluorescence; filed as Kd, often an IC50 or EC50 that approximates it; bounds were set here for any values at or beyond the usual limits of such assays
Details: source organism: Mammarenavirus juninense
Observed property: Kd (nM)
Expressed in nM, but write only the number.

Task: Query: Kd; subject: "GKLDPTNTL"
Result: 3000
